Measured pIC50 of individual entries
system: WISH; test: Cytotoxicity against human WISH cells after 96 hrs by MTT assay; type: functional, cell-based
pIC50: −log10 of the molar value.

// solved cases for pIC50 follow
{"compound": "COC1=CC(=O)C(O)(CC(C)=O)c2ccc3cc(O)ccc3c21 (centres undefined)", "pIC50": "< 4.80"}
{"compound": "COc1ccc2c(ccc3cc(O)cc(OC)c32)c1", "pIC50": "< 5.30"}
{"compound": "COc1cc(O)cc2ccc3cc(O)ccc3c12 [FLAVANTHRININ]", "pIC50": "< 4.68"}
{"compound": "CC[C@@]1(O)C(=O)OCc2c1cc1n(c2=O)Cc2cc3c(CN(C)C)c(O)ccc3nc2-1 [TOPOTECAN]", "pIC50": 5.89}
{"compound": "COc1ccc2c(ccc3c(-c4c(O)cc(OC)c5c4ccc4cc(O)ccc45)c(O)cc(OC)c32)c1", "pIC50": "< 4.99"}

Documented pIC50 of COc1ccc2c(ccc3c(-c4c(O)ccc5c4ccc4c(-c6c(O)cc(OC)c7c6ccc6cc(O)ccc67)c(O)cc(OC)c45)c(O)cc(OC)c32)c1 : < 4.82

Documented pIC50 of COC1=CC(=O)C(O)(CC(C)=O)c2ccc3cc(OC)ccc3c21 (centres undefined) : < 4.82

Documented pIC50 of COc1ccc2c(ccc3c(-c4c(O)cc(OC)c5c4ccc4cc(OC)ccc45)c(O)cc(OC)c32)c1 : 5.30

Documented pIC50 of COc1cc(O)c(-c2c(O)cc(OC)c3c2ccc2cc(O)ccc23)c2ccc3cc(O)ccc3c12 [CIRRHOPETALANTHIN] : < 4.64

These measurements were taken from ChEMBL document CHEMBL1157965.
